meta.source: patent US20060228349A1

target: T1, Biotinylated ADDL preparations (bADDLs) (N-terminal biotin); test: BIACORE, bADDL as antigen; column IgG1#1
T1 construct: Oligomer, number of copies not fixed; also called biotinylated ADDL antigen; high molecular weight 10% bADDL
// returns false (0) unless Kd is strictly below 0.01 nM, in which case true (1)

INSERT INTO assay_data (binder, cat) VALUES
  ('20C2-13A, affinity matured humanized 20C2, IgG1 humanized A version (antibody, V domains shown, also called 4p1-20; 4P1-20) VH: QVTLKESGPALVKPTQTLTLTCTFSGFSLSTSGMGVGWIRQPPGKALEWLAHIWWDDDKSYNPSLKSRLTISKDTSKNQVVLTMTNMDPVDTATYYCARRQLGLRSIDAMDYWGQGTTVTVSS VL: DVVMTQSPLSLPVTPGEPASISCRSSQSILHSNGNTYLEWYLQKPGQSPQLLIYKVSNRFSGVPDRFSGSGSGTDFTLKISRVEAEDVGVYYCLQTSNVPLTFGQGTKLEIKR', 'false (0)'),
  ('20C2-10A, affinity matured humanized 20C2, IgG1 humanized A version (antibody, V domains shown, also called 20C2-1GA; SJ-p3-33) VH: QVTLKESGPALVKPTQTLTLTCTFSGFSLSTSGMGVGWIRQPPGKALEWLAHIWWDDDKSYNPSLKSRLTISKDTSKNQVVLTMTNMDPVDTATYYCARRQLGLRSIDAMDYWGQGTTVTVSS VL: DVVMTQSPLSLPVTPGEPASISCRSSQSILHSNGNTYLEWYLQKPGQSPQLLIYKVSNRFSGVPDRFSGSGSGTDFTLKISRVEAEDVGVYYCFQGSRLPVSFGQGTKLEIKR', 'false (0)'),
  ('20C2-6A, affinity matured humanized 20C2, IgG1 humanized A version (antibody, V domains shown, also called 4P1-22) VH: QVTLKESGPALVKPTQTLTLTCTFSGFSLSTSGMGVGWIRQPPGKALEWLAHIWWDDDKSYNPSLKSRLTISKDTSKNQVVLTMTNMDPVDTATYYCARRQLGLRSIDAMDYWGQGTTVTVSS VL: DVVMTQSPLSLPVTPGEPASISCRSSQSILHSNGNTYLEWYLQKPGQSPQLLIYKVSNRFSGVPDRFSGSGSGTDFTLKISRVEAEDVGVYYCFQSSRVPLTFGQGTKLEIKR', 'true (1)'),
  ('20C2-6B, affinity matured humanized 20C2, IgG1 humanized B version (antibody, V domains shown, also called 4P1-22) VH: QVTLKESGPALVKPTQTLTLTCTLSGFSLSTSGMGVGWIRQPPGKALEWLAHIWWDDDKSYNPSLKSRLTISKDTSKNQVVLTMTNMDPVDTATYYCARRQLGLRSIDAMDYWGQGTTVTVSS VL: DVVMTQSPLSLPVTPGEPASISCRSSQSILHSNGNTYLEWYLQKPGQSPQLLIYKVSNRFSGVPDRFSGSGSGTDFTLKISRVEAEDVGVYYCFQSSRVPLTFGQGTKLEIKR', 'false (0)'),
  ('20C2-8A, affinity matured humanized 20C2, IgG1 humanized A version (antibody, V domains shown, also called SJ-p2-39) VH: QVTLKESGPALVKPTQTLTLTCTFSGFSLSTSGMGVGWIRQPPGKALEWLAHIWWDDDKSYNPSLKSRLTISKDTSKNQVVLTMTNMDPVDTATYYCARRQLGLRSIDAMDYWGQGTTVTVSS VL: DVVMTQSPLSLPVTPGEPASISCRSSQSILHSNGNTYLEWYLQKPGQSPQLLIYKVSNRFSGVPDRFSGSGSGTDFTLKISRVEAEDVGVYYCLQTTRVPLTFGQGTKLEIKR', 'true (1)'),
  ('20C2-12A, affinity matured humanized 20C2, IgG1 humanized A version (antibody, V domains shown, also called 4P1-32) VH: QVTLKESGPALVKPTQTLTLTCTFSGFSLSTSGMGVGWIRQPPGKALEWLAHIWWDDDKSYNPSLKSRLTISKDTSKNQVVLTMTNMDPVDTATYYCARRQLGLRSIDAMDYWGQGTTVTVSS VL: DVVMTQSPLSLPVTPGEPASISCRSSQSILHSNGNTYLEWYLQKPGQSPQLLIYKVSNRFSGVPDRFSGSGSGTDFTLKISRVEAEDVGVYYCLQSSLVPLTFGQGTKLEIKR', 'false (0)'),
  ('20C2-5A, affinity matured humanized 20C2, IgG1 humanized A version (antibody, V domains shown, also called SJ-p2-1F) VH: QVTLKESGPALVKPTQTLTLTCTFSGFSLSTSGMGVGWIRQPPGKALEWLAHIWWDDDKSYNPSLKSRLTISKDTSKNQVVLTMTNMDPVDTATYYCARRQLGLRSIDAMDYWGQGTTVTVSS VL: DVVMTQSPLSLPVTPGEPASISCRSSQSILHSNGNTYLEWYLQKPGQSPQLLIYKVSNRFSGVPDRFSGSGSGTDFTLKISRVEAEDVGVYYCFQSSFVPLTFGQGTKLEIKR', 'false (0)'),
  ('20C2-8B, affinity matured humanized 20C2, IgG1 humanized B version (antibody, V domains shown, also called SJ-p2-39) VH: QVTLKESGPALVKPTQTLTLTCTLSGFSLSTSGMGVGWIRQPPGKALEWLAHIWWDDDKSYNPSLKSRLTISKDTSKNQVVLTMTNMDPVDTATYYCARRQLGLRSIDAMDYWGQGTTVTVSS VL: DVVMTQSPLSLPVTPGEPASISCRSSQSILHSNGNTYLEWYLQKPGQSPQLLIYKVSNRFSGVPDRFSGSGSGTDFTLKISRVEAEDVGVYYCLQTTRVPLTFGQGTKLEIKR', 'false (0)'),
  ('20C2-24A, affinity matured humanized 20C2, IgG1 humanized A version (antibody, V domains shown, also called SJ-p2-44) VH: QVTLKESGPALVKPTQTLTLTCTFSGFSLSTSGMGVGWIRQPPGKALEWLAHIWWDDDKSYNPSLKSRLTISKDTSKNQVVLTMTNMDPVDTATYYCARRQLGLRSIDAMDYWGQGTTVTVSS VL: DVVMTQSPLSLPVTPGEPASISCRSSQSILHSNGNTYLEWYLQKPGQSPQLLIYKVSNRFSGVPDRFSGSGSGTDFTLKISRVEAEDVGVYYCGQTTLVPLTFGQGTKLEIKR', 'false (0)'),
  ('20C2-2A, affinity matured humanized 20C2, IgG1 humanized A version (antibody, V domains shown, also called SJ-p1-18) VH: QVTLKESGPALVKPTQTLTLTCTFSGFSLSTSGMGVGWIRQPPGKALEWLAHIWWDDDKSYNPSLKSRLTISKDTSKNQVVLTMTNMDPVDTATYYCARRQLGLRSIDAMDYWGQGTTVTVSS VL: DVVMTQSPLSLPVTPGEPASISCRSSQSILHSNGNTYLEWYLQKPGQSPQLLIYKVSNRFSGVPDRFSGSGSGTDFTLKISRVEAEDVGVYYCFQATRVPLTFGQGTKLEIKR', 'false (0)');
